Can you tell me Ki for the items I'm about to list?
target: Tyrosine-protein kinase JAK1 (Homo sapiens, UniProt P23458); assay: JAK Enzyme Assay: The activity of the isolated recombinant JAK1 and JAK2 kinase domain was measured by monitoring phosphorylation of a peptide derived from JAK3 ([…] fluorescently labeled on the N-terminus with 5-carboxyfluorescein) using the Caliper LabChip® technology (Caliper Life Sciences, Hopkinton, Mass.). […] Reactions were incubated at 22° C. in 384-well polypropylene microtiter plates for 30 minutes and then stopped by addition of 25 μL of an EDTA containing solution (100 mM HEPES buffer (pH 7.2), 0.015% Brij-35, 150 mM EDTA), resulting in a final EDTA concentration of 50 mM. After termination of the kinase reaction, the proportion of phosphorylated product was determined as a fraction of total peptide substrate using the Caliper LabChip® 3000 according to the manufacturer's specifications.
Sequence (P23458 whole entry, the tested form may be a part): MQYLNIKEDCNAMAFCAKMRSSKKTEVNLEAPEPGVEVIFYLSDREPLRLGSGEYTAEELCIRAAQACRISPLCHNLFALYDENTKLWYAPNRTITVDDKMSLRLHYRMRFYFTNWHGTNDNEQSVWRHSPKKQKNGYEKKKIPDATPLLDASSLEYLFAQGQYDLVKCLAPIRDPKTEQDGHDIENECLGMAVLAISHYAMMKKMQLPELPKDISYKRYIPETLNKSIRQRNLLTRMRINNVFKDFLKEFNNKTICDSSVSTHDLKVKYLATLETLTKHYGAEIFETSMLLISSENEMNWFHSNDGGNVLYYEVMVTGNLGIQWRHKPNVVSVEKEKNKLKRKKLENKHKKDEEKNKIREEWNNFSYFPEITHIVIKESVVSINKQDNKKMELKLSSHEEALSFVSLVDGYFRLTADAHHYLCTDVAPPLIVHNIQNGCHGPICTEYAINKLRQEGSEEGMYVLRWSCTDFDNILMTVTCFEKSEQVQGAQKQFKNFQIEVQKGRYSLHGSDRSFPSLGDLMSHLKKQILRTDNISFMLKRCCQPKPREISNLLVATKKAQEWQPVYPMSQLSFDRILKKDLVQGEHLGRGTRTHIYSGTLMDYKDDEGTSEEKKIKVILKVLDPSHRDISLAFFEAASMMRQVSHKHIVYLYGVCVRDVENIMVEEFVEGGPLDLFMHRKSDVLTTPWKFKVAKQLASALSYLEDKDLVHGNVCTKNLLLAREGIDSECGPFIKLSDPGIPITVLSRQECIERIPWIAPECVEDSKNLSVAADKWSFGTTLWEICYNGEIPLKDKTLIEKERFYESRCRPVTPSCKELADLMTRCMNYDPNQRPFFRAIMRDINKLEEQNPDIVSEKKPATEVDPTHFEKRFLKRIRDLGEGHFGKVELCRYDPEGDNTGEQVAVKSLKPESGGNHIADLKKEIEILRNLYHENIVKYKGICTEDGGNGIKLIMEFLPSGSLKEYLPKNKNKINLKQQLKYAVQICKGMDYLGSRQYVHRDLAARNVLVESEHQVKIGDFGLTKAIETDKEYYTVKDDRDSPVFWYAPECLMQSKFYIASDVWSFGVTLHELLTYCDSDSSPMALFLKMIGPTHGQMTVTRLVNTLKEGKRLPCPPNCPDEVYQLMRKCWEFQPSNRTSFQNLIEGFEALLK
Give the number; nM is assumed, so skip it.

The value of Ki measured for the molecule C[N+](C)(CCCc1ccccc1)C1CCN(C(=O)Cn2cc(NC(=O)c3cnn4cccnc34)c(-c3cc(Cl)ccc3OC(F)F)n2)CC1 turned out to be 1.21

The value of Ki measured for the molecule CN1CCC(n2cc(NC(=O)c3c(N)nn4cccnc34)c(-c3cc(Cl)ccc3OC(F)F)n2)CC1 turned out to be 0.76

The value of Ki measured for the molecule CCOC(=O)CCN1CCN(C(=O)Cn2cc(NC(=O)c3cnn4cccnc34)c(-c3cc(Cl)ccc3OC(F)F)n2)CC1 turned out to be 0.49

The value of Ki measured for the molecule CN(C)C1CCN(C(=O)C2CCN(c3nc(-c4cc(Cl)ccc4OC(F)F)c(NC(=O)c4cnn5cccnc45)s3)CC2)CC1 turned out to be 0.89

The value of Ki measured for the molecule O=C(Nc1cn(CC(=O)N2CCC(N3CC[S+]([O-])CC3)CC2)nc1-c1cc(Cl)ccc1OC(F)F)c1cnn2cccnc12 turned out to be 0.23

The value of Ki measured for the molecule N#C[C@H]1CCCN(C2CCN(C(=O)Cn3cc(NC(=O)c4cnn5cccnc45)c(-c4cc(Cl)ccc4OC(F)F)n3)CC2)C1 turned out to be 0.3

###

Can you tell me Ki for the items I'm about to list?
molecular target: UniProtKB O60674; assay: JAK Enzyme Assay: The activity of the isolated recombinant JAK1 and JAK2 kinase domain was measured by monitoring phosphorylation of a peptide derived from JAK3 ([…] fluorescently labeled on the N-terminus with 5-carboxyfluorescein) using the Caliper LabChip® technology (Caliper Life Sciences, Hopkinton, Mass.). […] Reactions were incubated at 22° C. in 384-well polypropylene microtiter plates for 30 minutes and then stopped by addition of 25 μL of an EDTA containing solution (100 mM HEPES buffer (pH 7.2), 0.015% Brij-35, 150 mM EDTA), resulting in a final EDTA concentration of 50 mM. After termination of the kinase reaction, the proportion of phosphorylated product was determined as a fraction of total peptide substrate using the Caliper LabChip® 3000 according to the manufacturer's specifications.
Sequence (O60674 whole entry, the tested form may be a part): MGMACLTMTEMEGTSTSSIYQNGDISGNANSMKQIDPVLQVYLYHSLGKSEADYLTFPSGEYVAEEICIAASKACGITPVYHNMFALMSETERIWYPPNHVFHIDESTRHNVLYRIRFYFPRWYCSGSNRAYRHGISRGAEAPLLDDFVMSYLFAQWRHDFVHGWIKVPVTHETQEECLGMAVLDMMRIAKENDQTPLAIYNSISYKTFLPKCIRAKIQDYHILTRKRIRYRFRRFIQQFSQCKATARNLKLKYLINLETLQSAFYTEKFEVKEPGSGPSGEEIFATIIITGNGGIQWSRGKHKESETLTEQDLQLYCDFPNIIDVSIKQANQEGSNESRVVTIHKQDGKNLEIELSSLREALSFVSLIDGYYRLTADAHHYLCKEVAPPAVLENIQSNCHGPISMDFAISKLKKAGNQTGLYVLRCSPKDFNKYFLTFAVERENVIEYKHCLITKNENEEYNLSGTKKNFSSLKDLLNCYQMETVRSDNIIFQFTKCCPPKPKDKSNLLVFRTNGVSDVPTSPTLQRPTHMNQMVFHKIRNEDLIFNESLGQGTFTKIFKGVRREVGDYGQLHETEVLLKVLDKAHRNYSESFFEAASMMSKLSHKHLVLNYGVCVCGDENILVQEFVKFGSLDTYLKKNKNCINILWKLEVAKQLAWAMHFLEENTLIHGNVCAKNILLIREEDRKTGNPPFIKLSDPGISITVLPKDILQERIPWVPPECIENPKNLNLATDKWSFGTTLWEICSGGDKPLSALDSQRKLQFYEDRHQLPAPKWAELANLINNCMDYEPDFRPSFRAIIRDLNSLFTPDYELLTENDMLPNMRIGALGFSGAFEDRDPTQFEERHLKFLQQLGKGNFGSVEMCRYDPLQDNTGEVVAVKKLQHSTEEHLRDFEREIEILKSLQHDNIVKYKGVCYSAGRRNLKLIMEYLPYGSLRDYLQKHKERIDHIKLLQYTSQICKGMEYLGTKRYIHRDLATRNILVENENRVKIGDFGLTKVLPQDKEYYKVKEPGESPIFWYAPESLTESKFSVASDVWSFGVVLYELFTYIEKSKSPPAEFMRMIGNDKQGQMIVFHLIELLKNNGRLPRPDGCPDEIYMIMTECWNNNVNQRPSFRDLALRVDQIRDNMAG

The value of Ki measured for the compound N#C[C@H]1CCCN(C2CCN(C(=O)Cn3cc(NC(=O)c4cnn5cccnc45)c(-c4cc(Cl)ccc4OC(F)F)n3)CC2)C1 turned out to be 0.76 nM

The value of Ki measured for the compound CN(C)C1CCN(C(=O)C2CCN(c3nc(-c4cc(Cl)ccc4OC(F)F)c(NC(=O)c4cnn5cccnc45)s3)CC2)CC1 turned out to be 0.86 nM

The value of Ki measured for the compound C[N+](C)(CCCc1ccccc1)C1CCN(C(=O)Cn2cc(NC(=O)c3cnn4cccnc34)c(-c3cc(Cl)ccc3OC(F)F)n2)CC1 turned out to be 2.9 nM

The value of Ki measured for the compound CN(CC1(C#N)CC1)C1CCN(C(=O)Cn2cc(NC(=O)c3cnn4cccnc34)c(-c3cc(Cl)ccc3OC(F)F)n2)CC1 turned out to be 0.64 nM

The value of Ki measured for the compound O=C(Nc1cn(CC(=O)N2CCC(N3CC[S+]([O-])CC3)CC2)nc1-c1cc(Cl)ccc1OC(F)F)c1cnn2cccnc12 turned out to be 0.63 nM

The value of Ki measured for the compound Nc1nn2cccnc2c1C(=O)Nc1cn(CC(=O)N2CC[C@@H](O)C2)nc1-c1cc(Cl)ccc1OC(F)F turned out to be 0.13 nM
